Reported CC50 values are given for each entry in this list.
tested on: IGROV-ET; assay: SRB colorimetric assay of cell growth and viability, IGROV-ET; format: cell-based, human; conditions: 48 hours exposure; read-out: LC50 IGROV-ET
Where a SMILES comes first, the peptide text is derived from it. Bridges are numbered along the chain shown (N, C = ends). [ ]: non-standard residue; d: D form. The star is where a group is joined. d(aIle) = CC[C@H](C)[C@@H](N)C(=O)O; d(aThr) = C[C@@H](O)[C@@H](N)C(=O)O; Hexanoyl(5-Me) = CC(C)CCCC(=O)*; Myristoyl = CCCCCCCCCCCCCC(=O)*; Orn = NCCC[C@H](N)C(=O)O; Dhb = C/C=C(\N)C(=O)O
Field format: number, assumed µM, no unit text.

Reference set (4 entries):
C/C=C1\NC(=O)[C@H](Cc2ccccc2)NC(=O)[C@@H](C(C)C)NC(=O)[C@@H](C(C)C)NC(=O)[C@H](NC(=O)[C@H](NC(=O)[C@H](CCCN)NC(=O)[C@H]2CCCN2C(=O)[C@H](NC(=O)[C@@H](NC(=O)[C@@H](NC(=O)[C@H](NC(=O)CCCC(C)C)C(C)C)[C@@H](C)O)C(C)C)C(C)C)C(C)C)[C@@H](C)OC(=O)[C@H](C(C)C)NC1=O [Compound 12, [D-Val^5, D-Val^7]-KF] ({Hexanoyl(5-Me)}-[dV]TV[dV][dP][Orn][dV][d(aThr)][dV][dV]F[Dhb]V; ester 8-C): 4.93
C/C=C1\NC(=O)[C@H](Cc2ccccc2)NC(=O)[C@@H](C(C)C)NC(=O)[C@@H]([C@@H](C)CC)NC(=O)[C@H](NC(=O)[C@H](NC(=O)[C@H](CCCN)NC(=O)[C@H]2CCCN2C(=O)[C@H](NC(=O)[C@@H](NC(=O)[C@@H](NC(=O)[C@@H](CC2CCCCC2)NC(=O)CCCC(C)C)[C@@H](C)O)C(C)C)C(C)C)[C@@H](C)CC)[C@@H](C)OC(=O)[C@H](C(C)C)NC1=O [Compound 8, [D-Cha^13]-KF]: 3.16
C/C=C1\NC(=O)[C@H](Cc2ccccc2)NC(=O)[C@@H](C(C)C)NC(=O)[C@@H]([C@@H](C)CC)NC(=O)[C@H](NC(=O)[C@H](NC(=O)[C@H](CCCN)NC(=O)[C@H]2CCCN2C(=O)[C@H](NC(=O)[C@@H](NC(=O)[C@@H](NC(=O)CNC(=O)CCCC(C)C)[C@@H](C)O)C(C)C)C(C)C)[C@@H](C)CC)[C@@H](C)OC(=O)[C@H](C(C)C)NC1=O [Compound 33, [Gly^13]-KF]: 6.96
C/C=C1\NC(=O)[C@H](Cc2ccccc2)NC(=O)[C@@H](C(C)C)NC(=O)[C@@H]([C@@H](C)CC)NC(=O)[C@H](NC(=O)[C@H](NC(=O)[C@H](CCCN)NC(=O)[C@H]2CCCN2C(=O)[C@H](NC(=O)CCCCCCCCCCCCC)C(C)C)[C@@H](C)CC)[C@@H](C)OC(=O)[C@H](C(C)C)NC1=O [Compound 32] (Myristoyl-[dV][dP][Orn][d(aIle)][d(aThr)][d(aIle)][dV]F[Dhb]V; ester 5-C): 5.16

## Task Please give the measured CC50 for this molecule: C/C=C1\NC(=O)[C@H](Cc2ccccc2)NC(=O)[C@@H](C(C)C)NC(=O)[C@@H]([C@@H](C)CC)NC(=O)[C@H](NC(=O)[C@H](NC(=O)[C@H](CCCN)NC(=O)[C@H]2CCCN2C(=O)[C@H](NC(=O)[C@@H](NC(=O)[C@@H](NC(=O)[C@@H](C)NC(=O)CCCC(C)C)[C@@H](C)O)C(C)C)C(C)C)[C@@H](C)CC)[C@@H](C)OC(=O)[C@H](C(C)C)NC1=O [Compound 34, [D-Ala^13]-KF]
## Result 4.14

## Task Please report the recorded CC50 for C/C=C1\NC(=O)[C@H](Cc2ccccc2)NC(=O)[C@@H](C(C)C)NC(=O)[C@@H]([C@@H](C)CC)NC(=O)[C@H](NC(=O)[C@H](NC(=O)[C@H](CCCN)NC(=O)[C@H]2CCCN2C(=O)[C@H](NC(=O)[C@@H](NC(=O)[C@@H](NC(=O)[C@H](NC(=O)CCCCC(C)(F)F)C(C)C)[C@@H](C)O)C(C)C)C(C)C)[C@@H](C)CC)[C@@H](C)OC(=O)[C@H](C(C)C)NC1=O [Compound 28, [6,6-dFHep^14]-KF] .
## Result 0.568

## Task Item C/C=C1\NC(=O)[C@H](Cc2ccccc2)NC(=O)[C@@H](C(C)C)NC(=O)[C@@H]([C@@H](C)CC)NC(=O)[C@H](NC(=O)[C@H](NC(=O)[C@H](CCCN)NC(=O)[C@H]2CCCN2C(=O)[C@H](NC(=O)[C@@H](NC(=O)[C@@H](NC(=O)[C@H](NC(=O)Cc2ccc(C(F)(F)F)cc2)C(C)C)[C@@H](C)O)C(C)C)C(C)C)[C@@H](C)CC)[C@@H](C)OC(=O)[C@H](C(C)C)NC1=O [Compound 25, [p-CF3PhAc^14]-KF] has what recorded CC50?
## Result 0.521

## Task Name the recorded CC50 for C/C=C1\NC(=O)[C@H](Cc2ccccc2)NC(=O)[C@@H](C(C)C)NC(=O)[C@@H]([C@@H](C)CC)NC(=O)[C@H](NC(=O)[C@H](NC(=O)[C@H](CCCN)NC(=O)[C@H]2CCCN2C(=O)[C@H](NC(=O)[C@@H](NC(=O)[C@@H](NC(=O)[C@H](NC(=O)c2ccc(C(F)(F)F)cc2)C(C)C)[C@@H](C)O)C(C)C)C(C)C)[C@@H](C)CC)[C@@H](C)OC(=O)[C@H](C(C)C)NC1=O [Compound 21, [p-CF3Bza^14]-KF] .
## Result 2.83
